# system-name: MMP-7 (Homo sapiens, UniProt P09237)
# Construct: purchased SIGMA CC1059
# Sequence (P09237 95-267): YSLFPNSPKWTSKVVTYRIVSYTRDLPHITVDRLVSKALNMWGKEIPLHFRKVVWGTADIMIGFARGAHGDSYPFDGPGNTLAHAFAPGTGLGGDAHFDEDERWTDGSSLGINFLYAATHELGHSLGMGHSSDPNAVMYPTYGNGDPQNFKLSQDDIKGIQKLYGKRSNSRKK
# assay-name: FRET peptide cleavage efficiency with MMP-7 (standard pH 7.5; also pH 6.5)
# Format: biochemical
# setup-conditions: t = 60 min (Table 9)
Square brackets hold non-standard residues; d marks the D form. Ends that are not written are not given here. Tyr(3-NO2) = N[C@@H](Cc1ccc(O)c([N+](=O)[O-])c1)C(=O)O; 2Abz = Nc1ccccc1C(=O)O

construct-sequence | system-name | % cleavage MMP-7 t = 60 min
SGRVYMLQG ([2Abz]SGRVYMLQG[Tyr(3-NO2)]-NH2) [LNK044] | MMP-7 (Homo sapiens, UniProt P09237) | 4%
HSSKLQYFGKL ([2Abz]HSSKLQYFGKL[Tyr(3-NO2)]-NH2) [LNK061] | MMP-7 (Homo sapiens, UniProt P09237) | 0%
RQRRSPLGLAG ([2Abz]RQRRSPLGLAG[Tyr(3-NO2)]-NH2) [LNK010] | MMP-7 (Homo sapiens, UniProt P09237) | 49%
SSRGRRGPYMLQG ([2Abz]SSRGRRGPYMLQG[Tyr(3-NO2)]-NH2) [LNK021] | MMP-7 (Homo sapiens, UniProt P09237) | 69%
GSGSGSGS ([2Abz]GSGSGSGS[Tyr(3-NO2)]-NH2) [LNK064] | MMP-7 (Homo sapiens, UniProt P09237) | 0%

----------
# system-name: MMP-2 (Homo sapiens, UniProt P08253)
# Construct: purchased SIGMA PF023
# Sequence (P08253 110-660): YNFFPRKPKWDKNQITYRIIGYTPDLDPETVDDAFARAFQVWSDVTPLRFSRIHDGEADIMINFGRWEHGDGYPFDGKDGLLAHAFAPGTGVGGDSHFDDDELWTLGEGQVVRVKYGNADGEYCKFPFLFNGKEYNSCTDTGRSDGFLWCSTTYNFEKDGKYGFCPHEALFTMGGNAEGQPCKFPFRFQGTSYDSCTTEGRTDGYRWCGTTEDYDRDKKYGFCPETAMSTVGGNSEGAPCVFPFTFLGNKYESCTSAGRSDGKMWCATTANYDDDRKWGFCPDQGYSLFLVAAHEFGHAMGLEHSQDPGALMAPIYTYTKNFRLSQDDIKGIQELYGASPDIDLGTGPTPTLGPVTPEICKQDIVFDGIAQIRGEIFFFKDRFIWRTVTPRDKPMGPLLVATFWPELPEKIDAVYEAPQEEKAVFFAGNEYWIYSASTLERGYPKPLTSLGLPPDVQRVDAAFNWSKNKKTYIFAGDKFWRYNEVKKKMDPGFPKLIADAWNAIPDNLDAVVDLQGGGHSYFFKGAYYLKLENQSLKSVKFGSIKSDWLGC
# assay-name: FRET peptide cleavage efficiency with MMP-2
# Assay type: biochemical
# setup-conditions: t = 15 min; 200 uM linker, 1 ug/ml protease, 37° C., buffer C pH 7.5
Square brackets hold non-standard residues; d marks the D form. Ends that are not written are not given here. Tyr(3-NO2) = N[C@@H](Cc1ccc(O)c([N+](=O)[O-])c1)C(=O)O; 2Abz = Nc1ccccc1C(=O)O

construct-sequence | % cleavage MMP-2 t = 15 min [%]
RGRRPLGLAGGSG ([2Abz]RGRRPLGLAGGSG[Tyr(3-NO2)]-NH2) [LNK051] | 73
GSSVYSGR ([2Abz]GSSVYSGR[Tyr(3-NO2)]-NH2) [LNK080] | 1
RGRRSGRAANLVRPLGYFGKL ([2Abz]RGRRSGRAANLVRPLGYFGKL[Tyr(3-NO2)]-NH2) [LNK059] | 77
SGRPLGYFGKL ([2Abz]SGRPLGYFGKL[Tyr(3-NO2)]-NH2) [LNK056] | 75

----------
# system-name: MMP-7 (Homo sapiens, UniProt P09237)
# Construct: purchased SIGMA CC1059
# Sequence (P09237 95-267): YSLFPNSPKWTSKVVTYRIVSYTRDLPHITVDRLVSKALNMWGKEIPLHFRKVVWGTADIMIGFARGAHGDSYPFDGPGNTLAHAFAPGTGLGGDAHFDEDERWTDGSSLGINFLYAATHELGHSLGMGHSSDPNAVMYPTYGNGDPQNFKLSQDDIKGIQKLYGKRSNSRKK
# assay-name: FRET peptide cleavage efficiency with MMP-7 (standard pH 7.5; also pH 6.5)
# Assay type: biochemical
# setup-conditions: t = 60 min; standard conditions (Table 8)
Square brackets hold non-standard residues; d marks the D form. Ends that are not written are not given here. Tyr(3-NO2) = N[C@@H](Cc1ccc(O)c([N+](=O)[O-])c1)C(=O)O; Nle = CCCC[C@H](N)C(=O)O; 2Abz = Nc1ccccc1C(=O)O
Param threshold (80%) applies to % cleavage MMP-7 t = 60 min; output YES when value >= threshold, NO when value < threshold.

substance | system-name | class
RGRRVANLVG ([2Abz]RGRRVANLVG[Tyr(3-NO2)]-NH2) [LNK033] | MMP-7 (Homo sapiens, UniProt P09237) | YES
SGRVQPLVD (not fully specified (N-terminus, C-terminus)) [LNK047] | MMP-7 (Homo sapiens, UniProt P09237) | NO
RGRKSPYMLQG ([2Abz]RGRKSPYMLQG[Tyr(3-NO2)]-NH2) [LNK037] | MMP-7 (Homo sapiens, UniProt P09237) | NO
RGRKPY-Nle-LQG ([2Abz]RGRKPY[Nle]LQG[Tyr(3-NO2)]-NH2) [LNK036] | MMP-7 (Homo sapiens, UniProt P09237) | YES

----------
# system-name: uPA (Homo sapiens, UniProt P00749)
# assay-name: FRET peptide cleavage efficiency with uPA
# Type: biochemical
# setup-conditions: t = 120 min; 200 uM linker, 1 ug/ml protease, 37° C., buffer A pH 8.5
Square brackets hold non-standard residues; d marks the D form. Ends that are not written are not given here. Tyr(3-NO2) = N[C@@H](Cc1ccc(O)c([N+](=O)[O-])c1)C(=O)O; 2Abz = Nc1ccccc1C(=O)O
The following substances are listed with their measured % cleavage uPA t = 120 min values.
assay-readout: % cleavage uPA t = 120 min (%)

substance | assay-readout | scale-unit | observed-result
RQRRSAAPLGLAG ([2Abz]RQRRSAAPLGLAG[Tyr(3-NO2)]-NH2) [LNK028] | % cleavage uPA t = 120 min | % | 2
SSRGPYMLQG ([2Abz]SSRGPYMLQG[Tyr(3-NO2)]-NH2) [LNK022] | % cleavage uPA t = 120 min | % | 3
SGRVANYFGKL ([2Abz]SGRVANYFGKL[Tyr(3-NO2)]-NH2) [LNK054] | % cleavage uPA t = 120 min | % | 100
RRLNYSL ([2Abz]RRLNYSL[Tyr(3-NO2)]-NH2) [LNK074] | % cleavage uPA t = 120 min | % | 0
SGRVLTLRKAGPAGLVG ([2Abz]SGRVLTLRKAGPAGLVG[Tyr(3-NO2)]-NH2) [LNK011] | % cleavage uPA t = 120 min | % | 35
SGRPLGYFGKL ([2Abz]SGRPLGYFGKL[Tyr(3-NO2)]-NH2) [LNK056] | % cleavage uPA t = 120 min | % | 0
RGRRVANPLGLAGSG ([2Abz]RGRRVANPLGLAGSG[Tyr(3-NO2)]-NH2) [LNK050] | % cleavage uPA t = 120 min | % | 6
ISQYSSAT ([2Abz]ISQYSSAT[Tyr(3-NO2)]-NH2) [LNK070] | % cleavage uPA t = 120 min | % | 0

----------
Each item that follows carries a reported Kallikrein-3 t = 1 h % cleavage.
# system-name: Kallikrein-3 (Homo sapiens, UniProt P07288)
# Sequence (P07288 25-261, species assumed): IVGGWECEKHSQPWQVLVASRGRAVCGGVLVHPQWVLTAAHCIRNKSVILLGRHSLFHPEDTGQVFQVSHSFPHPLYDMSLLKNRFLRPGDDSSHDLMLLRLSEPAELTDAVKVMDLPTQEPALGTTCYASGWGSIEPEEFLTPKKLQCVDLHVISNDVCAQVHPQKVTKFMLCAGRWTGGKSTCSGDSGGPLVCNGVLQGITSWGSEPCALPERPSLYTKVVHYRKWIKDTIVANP
# assay-name: FRET peptide cleavage efficiency with Kallikrein-3
# Format: biochemical
# setup-conditions: t = 1 h; peptide 200 uM, Kallikrein-3 2 μg/ml, 37° C., pH 8
Square brackets hold non-standard residues; d marks the D form. Ends that are not written are not given here. Tyr(3-NO2) = N[C@@H](Cc1ccc(O)c([N+](=O)[O-])c1)C(=O)O; 2Abz = Nc1ccccc1C(=O)O

substance | system-name | Kallikrein-3 t = 1 h % cleavage, %
SQYQSSPG ([2Abz]SQYQSSPG[Tyr(3-NO2)]-NH2) [LNK067] | Kallikrein-3 (Homo sapiens, UniProt P07288) | 8
RRLNYSL ([2Abz]RRLNYSL[Tyr(3-NO2)]-NH2) [LNK074] | Kallikrein-3 (Homo sapiens, UniProt P07288) | 23
SQLYSSPG ([2Abz]SQLYSSPG[Tyr(3-NO2)]-NH2) [LNK068] | Kallikrein-3 (Homo sapiens, UniProt P07288) | 31
RSSYYSL ([2Abz]RSSYYSL[Tyr(3-NO2)]-NH2) [LNK076] | Kallikrein-3 (Homo sapiens, UniProt P07288) | 0
KLYSSKQ ([2Abz]KLYSSKQ[Tyr(3-NO2)]-NH2) [LNK071] | Kallikrein-3 (Homo sapiens, UniProt P07288) | 23

These measurements were taken from patent US20240400614A1.
